experiment: Pharmacokinetics of etonogestrel esters after one i.m. injection in the rabbit (plasma etonogestrel by LC-MSMS)
Type: in vivo
cond: one i.m. injection 20 mg/kg in arachis oil (40 mg/ml), rabbit plasma
Procedure: For the determination of the pharmacokinetic profile of the different etonogestrel-esters after parenteral application, i.m. application in the castrated rabbit model was chosen instead of s.c. Briefly, rabbits were injected once (day 1) with indicated etonogestrel-esters at 20 mg/kg in arachis oil (with a concentration of 40 mg/ml). […] With LC-MSMS, the amount of parent compound (etonogestrel) was determined in these samples. […]
As shown below, each of these compounds has a reported peak levels of etonogestrel value.

{"columns": ["compound", "peak levels of etonogestrel, nmol/L"],
 "data": [
  ["C#C[C@]1(OC(=O)CCCCCCCCCCC)CC[C@H]2[C@@H]3CCC4=CC(=O)CC[C@@H]4[C@H]3C(=C)C[C@@]21CC [etonogestrel dodecanoate]", 9],
  ["C#C[C@]1(O)CC[C@H]2[C@@H]3CCC4=CC(=O)CC[C@@H]4[C@H]3C(=C)C[C@@]21CC [etonogestrel, reference compound]", 200],
  ["C#C[C@]1(OC(=O)CCCCCC)CC[C@H]2[C@@H]3CCC4=CC(=O)CC[C@@H]4[C@H]3C(=C)C[C@@]21CC [Etonogestrel-heptanoate]", 120],
  ["C#CC1(OC(=O)CCCCCCCCC)CCC2C3CCC4=CC(=O)CCC4C3C(=C)CC21CC (stereo not shown) [etonogestrel decanoate]", 24],
  ["C#C[C@]1(OC(=O)CCCCCCCCCC)CC[C@H]2[C@@H]3CCC4=CC(=O)CC[C@@H]4[C@H]3C(=C)C[C@@]21CC [etonogestrel undecanoate]", 13]
]}
